Measured values drawn from ChEMBL document CHEMBL1201862 for this set.

# System: RXF 393
# ASSAY_NOTES: NCI tumour cell line growth inhibition, 48 h
Active and inactive are the calls of the source. No stated cut-off is given here; in the data, active = GI50 up to about 1.1 µM and inactive = higher.
// allowed return values: active, inactive

INPUT: Each compound tested received a call. Report the one for CCOC(=O)CNC(=O)C(CSC(=O)N(C)O)NC(=O)CCC(N)C(=O)O (stereo not given) .
OUTPUT: inactive

INPUT: What outcome does the record of this test show for `Cc1ccc([N+](=O)[O-])c2c(NCCNC(=O)c3cc(C(=O)NCCNc4ccnc5c(C)ccc([N+](=O)[O-])c45)n(C)n3)ccnc12` ?
OUTPUT: inactive

INPUT: Dear all, I need the recorded test outcome for `COC(=O)c1nn2ccc3ccccc3c2c1C(=O)OC` , thank you.
OUTPUT: inactive

INPUT: Hi, do you know how `CCCCNC(=O)NNC(=O)c1cc(/C=C/c2cccc([N+](=O)[O-])c2)ncn1` came out in this test?
OUTPUT: inactive

INPUT: Give the logged outcome of this assay for the following compound: C=C1C(C)C2C(Cc3ccccc3)NC(=O)C23C(OC(C)=O)C=CC(C)(O)C(=O)C(C)C/C=C/C3C1O (stereo not given)
OUTPUT: active

INPUT: Tell me the recorded outcome of this test for COc1ccc(NC(=O)C(=O)C2NC(=S)NC2=O)c(OC)c1 (stereo not given) .
OUTPUT: inactive

INPUT: Could you check what this test reported for O=C(O)CC1OCC=C2CN3CCC45c6ccccc6NC4C1C2CC35 (stereo not given) ?
OUTPUT: inactive

INPUT: Tell me the recorded outcome of this test for `Nc1cccc(S(=O)(=O)NCC(=O)O)c1` .
OUTPUT: inactive

INPUT: For CC(=O)OC(C)(C)CCC(=O)[C@](C)(O)[C@H]1[C@H](O)C[C@@]2(C)[C@@H]3CCc4c(cc(OC5OC(CO)C(O)C(O)C5O)c(O)c4C)C3(C)C(=O)C[C@]12C (stereo not given in full) , which call appears in the assay record?
OUTPUT: inactive

INPUT: Which outcome was entered for the compound CCOC(=O)c1cc(C2(OC)CCN(Cc3ccccc3)C2=O)c(-c2cc(C)no2)[nH]1 (stereo not given) in this test?
OUTPUT: inactive

INPUT: Could you kindly confirm the outcome this assay logged for CC1OC1P(=O)(O)O (stereo not given) ?
OUTPUT: inactive

INPUT: // outcome(item) with item = NC1=NN(c2ccccc2)C(=O)C1/C(=N\NC(=O)c1cc2ccccc2cc1O)C(=O)Nc1cccc(C(F)(F)F)c1 (stereo not given)
OUTPUT: inactive

INPUT: Hi, sorry to bother you, what did the test record for CC(C)(C)[Si](C)(C)OCC1CCC(n2cnc3c(=O)[nH]cnc32)O1 (stereo not given) ?
OUTPUT: inactive

INPUT: I'd appreciate the recorded outcome for `C/C(=N\O)c1ccc(OCc2cc(C(F)(F)F)cc(C(F)(F)F)c2)cc1` from this test.
OUTPUT: inactive

INPUT: Test call for this compound, please: `Cc1cc2c3c(coc3c1-c1c(C)cc3c4c(coc14)C(=O)C(O)=C3C(C)C)C(=O)C(O)=C2C(C)C`
OUTPUT: inactive

INPUT: Status in this test for `COc1cc2c(cc1OCCN1C(=O)c3cccc4cccc(c34)C1=O)N=C[C@@H]1CCCN1C2=O` ?
OUTPUT: inactive

INPUT: Which result was noted for this compound in the test: CCOC(=O)C1C(C)C2(C#N)C(=N)OC1(C)C2(C#N)C#N (stereo not given)
OUTPUT: inactive

INPUT: Kindly provide the recorded test outcome for the following compound: CC1=C(CO)C(=O)O[C@@H]([C@@H](CO)[C@H]2CCC3C4C[C@@H](O)[C@@]5(O)CC=CC(=O)[C@]5(C)C4CC[C@@]32C)C1 (stereo not given in full)
OUTPUT: inactive

INPUT: So what was the verdict on `CCCCNC(=O)OCCN=c1c2ccccc2ccc2ccccc12` in this test?
OUTPUT: inactive

INPUT: For `Cc1ccc(S(=O)(=O)OC[C@@H]2CO2)cc1` , what call appears in the results of this test?
OUTPUT: inactive

---

# Test system: PC-3
# ASSAY_NOTES: NCI tumour cell line growth inhibition, 48 h
Active and inactive are the calls of the source. Cut-off read from the data, not from the text of the source: active = GI50 up to about 1.1 µM and inactive = higher.
Please state which outcome applies, choosing from y = active, n = inactive

INPUT: Assay outcome for `COc1cccc(CCNc2c(C#N)c3nc4ccccc4n3c3ccccc23)c1` : what was it?
OUTPUT: y

INPUT: Just curious, what result did `CCOC(=O)c1ccc(-c2ccc(Cl)cc2)[nH]1` get here?
OUTPUT: y

INPUT: Write down the call the test reported for this molecule. Item: `O=C1NC(=S)NC(=O)C1C(c1ccc([N+](=O)[O-])cc1)C1C(=O)NC(=S)NC1=O.c1ccncc1`
OUTPUT: n

INPUT: Hi, do you know how `COc1ccc(-n2c(=O)c3nc[nH]c3n(-c3ccc(OC)cc3)c2=S)cc1` came out in this test?
OUTPUT: n

---

# Tested on: SF-268
# ASSAY_NOTES: NCI tumour cell line growth inhibition, 48 h
Active and inactive are the calls of the source. No stated cut-off is given here; in the data, active = GI50 up to about 1.1 µM and inactive = higher.
ASSAY_METRIC: GI50

The reported SF-268 GI50 of `O=C1NC(=O)/C(=C/c2ccc(S(=O)(=O)N/N=C/c3ccc(Cl)cc3)cc2)N1` is > 100 µM (inactive)

The measured GI50 that CCC(C)C(N)C(=O)NC(CC(N)=O)C(=O)NC(CC(C)C)C(=O)NC(CCCCN)C(=O)NC(C)C(=O)NC(CC(C)C)C(=O)NC(C)C(=O)NC(C)C(=O)NC(CC(C)C)C(=O)NC(C)C(=O)NC(CCCCN)C(=O)NC(CCCCN)C(=O)NC(C(=O)NC(CC(C)C)C(N)=O)C(C)CC (centres undefined) showed for SF-268 is 6.47 µM (inactive)

// assay SF-268, entry NCCCC(N)C(=O)O (centres undefined) , GI50 value = > 100 µM (inactive)

Value (GI50, SF-268) for record COc1ccc(Cc2nn(C3OC(COC(C)=O)C(OC(C)=O)C(OC(C)=O)C3OC(C)=O)c(=S)n(-c3ccc(OC)cc3)c2=O)cc1 (centres undefined) = > 100 µM (inactive)

---

# Test system: A498
# ASSAY_NOTES: NCI tumour cell line growth inhibition, 48 h
Activity calls are given as the source filed them. Rule as the data show it: active = GI50 up to about 1.1 µM and inactive = higher.
ASSAY_METRIC: GI50

GI50 for A498 with input `C=CCNC1=C2C[C@@H](C)C[C@@H](OC)[C@@H](OC(=O)CCCN)[C@H](C)/C=C(\C)[C@@H](OC(N)=O)[C@H](OC)/C=C\C=C(/C)C(=O)NC(=CC1=O)C2=O` equals 20.5 µM (inactive)

The molecule `Cc1csc(CP(=O)(OC(C)C)OC(C)C)n1` , tested on A498, showed GI50 of > 100 µM (inactive)

Case `CCCCc1ccc(Nc2nc(S)c3[nH]cnc3n2)cc1` , A498, GI50 recorded as 16.6 µM (inactive)

Tested system A498; GI50 recorded for `CCCCS/C(=C(/C#N)C(N)=O)c1cc2c([nH]1)CCCC2` was 17.6 µM (inactive)

Tested on A498, the item `COc1cc(-c2cc(OC)c(OC)c3ccc(Br)cc23)c2cc(Br)ccc2c1OC` showed GI50 equal to 23.8 µM (inactive)

# `COc1ccc(-n2c(=O)c3nc[nH]c3n(-c3ccc(OC)cc3)c2=S)cc1` with A498: GI50 is > 100 µM (inactive)

Record C=C/C(C)=C\CC1[C@](C)(O)CC[C@H]2C(C)(C)C(O)CC[C@]12C (stereo not given in full) / A498, GI50 recorded as > 100 µM (inactive)

Form field GI50 for item `CCOC(=O)c1nc2ccccc2nc1NCc1ccc(OC)cc1` on A498: 32.2 µM (inactive)

// molecule `CCCc1nnc2sc(COc3cc(Cl)c(OCc4nn5c(CCC)nnc5s4)cc3Cl)nn12` , assay A498, GI50 value: 37.8 µM (inactive)

The reported GI50 value, A498, for COC(=O)C1CC(C=[N+](C)C)=C(SC)N1C(=O)OCc1ccccc1 (stereo not given) reads > 100 µM (inactive)

Measured on A498, CC(=O)Oc1cc(C)c2c(c1OC(C)=O)CC1(O2)[C@@H](C)CCC2[C@@]3(C)CC[C@H](OC(C)=O)C(C)(C)C3CC[C@]21C (stereo not given in full) has a documented GI50 of 7.46 µM (inactive)

// GI50 (A498) for `COc1cc2c(cc1C[N+](C)(C)CSc1ccccc1)-c1ccccc1CC2` = 18.5 µM (inactive)

// GI50 (A498) for `Clc1cc(Cc2cc(Cl)c(Cl)c3c2OCOC3)c2c(c1Cl)COCO2` = 28.4 µM (inactive)

# `C[C@]12C=CC(=O)C=C1CC[C@H]1[C@@H]3C[C@@H](O)[C@](O)(C(=O)CO)[C@@]3(C)C[C@H](O)[C@@]12F` with A498: GI50 is > 100 µM (inactive)

Assay A498, sample CC1=Nc2c(ccc3c2C(=O)c2ccccc2C3=O)NC(c2cccc3c2CCC3)C1 (stereo not given) , GI50 read: > 67.3 µM (inactive)

Field GI50 (A498), entry `CC(C)(C)C1=CC(=C2C=Cc3cc(O)ccc3O2)C=C(C(C)(C)C)C1=O` : 1.5 µM (inactive)

So the reported GI50 for `Cn1cnc([N+](=O)[O-])c1Sc1nccn1-c1ccccc1` , on A498, turned out to be > 100 µM (inactive)

// molecule `CCC(C)(C)NS(=O)(=O)c1ccccc1` , assay A498, GI50 value: > 100 µM (inactive)

Short answer on A498 for `C[C@]12CC[C@H]3[C@@H](CC=C4C[C@@H](N5CCCC5)CC[C@@]43C)[C@@H]1C[C@H](N1CCCCC1)[C@@H]2O` , GI50: > 100 µM (inactive)

Reading of GI50 for Cc1cnc(Cl)nc1C(C#N)c1nc2ccccc2s1 (stereo not given) with A498: 25.2 µM (inactive)
